Assay: modulators of AGP1-GFP expression in yeast TOR pathway, primary screen, cell-based, multiplex flow cytometry, S. cerevisiae (AID 1887);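 also: AGP1-GFP fusion strain of S. cerevisiae within a five-strain barcoded multiplex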
Conditions: 3 h, at 10 µM, stronger effect = higher value
Results filed as inconclusive are left out.
measured.metric: GFP response, % of DMSO (%)
# value in %; strip the unit string

Consider the following illustrative entries.
COc1ccc(CN(C)CCc2ccccn2)cc1OC :: 90.6
COc1ccc(OC)c(-c2oc3ccccc3c(=O)c2O)c1 :: 101
C#C[C@]1(O)CC[C@H]2[C@@H]3CCC4=C(CCC(=O)C4)[C@H]3CC[C@@]21C :: 98.7
CN(C)C(=O)C12CCC(C)(c3nc4ccccc4nc31)C2(C)C (stereo unspecified) :: 99.3
Cn1c(=O)c2c(ncn2Cc2ccccc2)n(C)c1=O :: 109

-- ask Please look up its GFP response, % of DMSO: N=C(N)c1ccc(OCCCCCOc2ccc(C(=N)N)cc2)cc1
-- reply 99.6

-- ask Please look up its GFP response, % of DMSO: OC[C@@H](O)[C@@H](O[C@H]1O[C@H](CO)[C@@H](O)[C@H](O)[C@H]1O)[C@H](O)[C@@H](O)CO
-- reply 95

-- ask Please look up its GFP response, % of DMSO: CC(C)[N+]1(C)[C@@H]2CC[C@H]1CC(OC(=O)C(CO)c1ccccc1)C2 (stereo partly specified)
-- reply 104

-- ask Please look up its GFP response, % of DMSO: CCN(CC)CCNc1ccc(CO)c2sc3ccccc3c(=O)c12
-- reply 103

-- ask Please look up its GFP response, % of DMSO: CC(C)Cn1c(=S)[nH]c2cc(C(=O)O)ccc2c1=O
-- reply 98.5

----------
Assay: RPL19A-GFP modulators, yeast TOR pathway, confirmation, cell-based, S. cerevisiae, flow cytometry, cherry picks, mother/daughter gates (AID 2270)
Details: S. cerevisiae RPL19A-GFP strain, 3 h, measured here: mother cell gate, at 10 µM, stronger effect = lower value, 100 = same GFP as DMSO wells
This listing pairs compounds with measured GFP response vs DMSO.
# value in %; strip the unit string

Consider the following illustrative entries.
CC(=O)NC1(C(F)(F)F)C(=O)Nc2c1c(=O)[nH]c(=O)n2CCc1ccccc1 (centres undefined) :: 98.6
Cc1ccc(S(=O)(=O)c2ncccc2[N+](=O)[O-])cc1 :: 89.1
Cc1n[nH]c(C)c1N1C(=O)c2cccc3cc(Br)cc(c23)C1=O :: 97

Could you now consider this next compound?
-- ask Please look up its GFP response vs DMSO: O=C1CC(SCCO)C(=O)N1c1ccc(Oc2ccccc2)cc1 (centres undefined)
-- reply 101

----------
This listing pairs compounds with measured GFP response relative to DMSO.
Assay: LAP4-GFP expression modulators in yeast, confirmation, cell-based, cherry picks, flow cytometry, mother/daughter gates (AID 2271);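 also: ratio of sample to DMSO plate mean so 100% equals DMSO level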
Settings: S. cerevisiae LAP4-GFP strain, 3 h, measured here: mother cell gate response, at 10 µM, stronger effect = higher value, 100 means same as DMSO control
# value in %; strip the unit string

Consider the following illustrative entries.
Cc1cc(=O)[nH]c(-n2nc(C)cc2C)n1 :: 100
CC(=O)c1sc2nc(C)c3c(c2c1N)CCCC3 :: 115
O=C(/C=C/c1ccccc1)Nc1ncn[nH]1 :: 137

-- ask Please look up its GFP response relative to DMSO: COc1ccc(/C=C2/C(=O)ON=C2c2ccccc2)cc1OC
-- reply 99.5

-- ask Please look up its GFP response relative to DMSO: COc1ccc(OC)c(CNC(=O)CCC(=O)N2Cc3cccc(OC)c3Oc3ncccc32)c1
-- reply 95.2

-- ask Please look up its GFP response relative to DMSO: O=c1c2c(-c3cccs3)csc2ncn1/N=C/c1ccccn1
-- reply 121

-- ask Please look up its GFP response relative to DMSO: CCCN1C(=O)c2cccc3c(N4CCCCC4)ccc(c23)C1=O
-- reply 99.5

-- ask Please look up its GFP response relative to DMSO: CCN(CC)c1ccc(/C=C/c2ccc3ccc(OC)cc3[n+]2CC)cc1
-- reply 119

-- ask Please look up its GFP response relative to DMSO: CN1/C(=C\C(=O)c2cccc(S(=O)(=O)N3CCCCC3)c2)C(C)(C)c2ccccc21
-- reply 94
